target: ANK2; experiment: SPR
Measured property: Kd

Prompt: # lookup: Kd of YAKRIFYQLLSKEL [AH2]
Completion: 23.3 µM

Hey, just so you know, these numbers are from patent US20230416305A1.
